- System: Drosophila S2 cl14 SmoIP sensor cells;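 further: flow cytometry read-out as median GFP intensity of gated cells, compounds added 30 min before Hh-conditioned or mock medium, mock-treated cells serving as unstimulated baseline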
- assay-notes: normalized SmoIP GFP fluorescence (untreated unstimulated = 0%, untreated Hh-stimulated = 100%); higher = more Smo activation sensor fluorescence
- condition-set: stimulation: mock conditioned medium (-Hh); compound concentration: 2 uM; 24 h
Could you please report measured normalized SmoIP GFP fluorescence for the items listed next?
Numbers only, in %.

Reference set, count: 3
Clc1ccc(C2(c3ccc(-c4cn[nH]c4)cc3)CCNCC2)cc1: 17.1
N#Cc1c(O)c2c(-c3ccc(-c4ccccc4O)cc3)csc2[nH]c1=O: 6.28
Cc1ccc(NCCCc2ccccc2)c(N)c1: 40.1

Field: normalized SmoIP GFP fluorescence. Fill in for each record below.
1. CCC[C@H](NC(=O)[C@@H]1[C@H]2CCC[C@H]2CN1C(=O)[C@@H](NC(=O)[C@@H](NC(=O)c1cnccn1)C1CCCCC1)C(C)(C)C)C(=O)C(=O)NC1CC1
2. NS(=O)(=O)c1ccc(NC(=O)Nc2ccc(F)cc2)cc1
3. CC1=C(C(=O)OC2CCCCC2)C(c2ccc([N+](=O)[O-])cc2)C2=C(CC(C)(C)CC2=O)N1 (stereo not drawn)

Response:
[1.03, -3.05, 4.26]

Field: normalized SmoIP GFP fluorescence. Fill in for each record below.
1. Cc1ccc2c(c1)C(=O)C1(O)CCN(c3ccccc3)C1=N2 (stereo not drawn)
2. Cc1ccc([C@@H]2O[C@H](CO)[C@@H](O)[C@H](O)[C@H]2O)cc1Cc1ccc(-c2ccc(F)cc2)s1

Response:
1. -0.378
2. -10.2
